Data origin, for the record: the supplement of paper PMC9780213

# Test system: U2OS
# Protocol: cell count relative to DMSO control (panel A, nuclei/RNA/PMG/mitochondria stain) (fraction of control); higher = more cells (less toxicity)
# Condition Details: 0.625 µM; treatment time: 24 h
Reported Property: cell count

A selection of reference data follows.
# Compound, cell count
measured = [
    ("O=C(CCCN1CCC(O)(c2ccc(Cl)cc2)CC1)c1ccc(F)cc1 [haloperidol]", 0.985),
    ("CC(=O)N[C@@H](CC(C)C)C(=O)N[C@@H](CC(C)C)C(=O)N[C@H](C=O)CCCN=C(N)N [leupeptin]", 1.09),
    ("COc1cc(NS(C)(=O)=O)ccc1Nc1c2ccccc2nc2ccccc12 [amsacrine]", 0.838),
    ("O=C(Oc1cc(S(=O)(=O)c2ccccc2)ccc1[N+](=O)[O-])c1ccc(Cl)cc1", 1.08),
]

Next item in the queue.
For Cc1[nH]c2ccccc2c1CCNC(=O)c1cccs1 [CK-636] , what is its reported cell count?
0.971

* * *

# Test system: U2OS-LMNB1-TUBA1B-ACTB
# Protocol: cell count relative to DMSO control (panel C1, DRAQ5/ER stain) (fraction of control); higher = more cells (less toxicity)
# Condition Details: 1.25 µM; treatment time: 24 h
Parameter threshold = 1. Response is label 1 when cell count meets or exceeds it, else label 0.

The examples below pair each entry with its known result.
# Structure Notation, Tested System, Group Label
rows = [
    ("COc1cc([C@@H]2c3cc4c(cc3[C@H](O)[C@H]3COC(=O)[C@@H]23)OCO4)cc(OC)c1OC", "U2OS-LMNB1-TUBA1B-ACTB", "label 1"),
    ("CCc1c2c(nc3ccc(OC(=O)N4CCC(N5CCCCC5)CC4)cc13)-c1cc3c(c(=O)n1C2)COC(=O)[C@]3(O)CC", "U2OS-LMNB1-TUBA1B-ACTB", "label 0"),
    ("CC(C)n1nc(-c2ccc3oc(N)nc3c2)c2c(N)ncnc21", "U2OS-LMNB1-TUBA1B-ACTB", "label 0"),
    ("CCCC[C@@H](C=O)NC(=O)[C@H](CC(C)C)NC(=O)[C@H](CC(C)C)NC(C)=O", "U2OS-LMNB1-TUBA1B-ACTB", "label 1"),
    ("COc1cccc2c1C(=O)c1c(O)c3c(c(O)c1C2=O)C[C@@](O)(C(=O)CO)C[C@@H]3O[C@H]1C[C@H](N)[C@H](O)[C@H](C)O1", "U2OS-LMNB1-TUBA1B-ACTB", "label 0"),
]

Exam item: decide whether the reported cell count for O=C(Oc1cc(S(=O)(=O)c2ccccc2)ccc1[N+](=O)[O-])c1ccc(Cl)cc1 is at least 1.
label 0

Exam item: decide whether the reported cell count for O=C(N/N=C/c1ccc(O)c(O)c1)c1cc2ccccc2cc1O is at least 1.
label 1

Exam item: decide whether the reported cell count for O=C1c2c(O)ccc(O)c2C(=O)c2c(NCCNCCO)ccc(NCCNCCO)c21 is at least 1.
label 0

* * *

# System: U2OS
# Protocol: cell count relative to DMSO control (panel A, nuclei/RNA/PMG/mitochondria stain) (fraction of control); higher = more cells (less toxicity)
# Condition Details: 10 µM; treatment time: 24 h
Parameter threshold = 0.6. Response is t when cell count meets or exceeds it, else f.

# Compound, Group Label
data = [
    ("NCCCCC(N)C(=O)NC(CCCCN)C(=O)NC(Cc1c[nH]c2ccccc12)C(=O)NC(Cc1c[nH]c2ccccc12)C(=O)NC(CCCCN)C(=O)NC(CCCCN)C(=O)NC(Cc1c[nH]c2ccccc12)C(=O)NC(C(=O)NC(CCCCN)C(N)=O)C(c1ccccc1)c1ccccc1 (stereo unspecified)", "f"),
]

Exam item: decide whether the reported cell count for CC(C)n1c(/C=C/C(O)CC(O)CC(=O)O)c(-c2ccc(F)cc2)c2ccccc21 (stereo unspecified) is at least 0.6.
t

Exam item: decide whether the reported cell count for CO[C@@]12[C@H](COC(N)=O)C3=C(C(=O)C(C)=C(N)C3=O)N1C[C@@H]1N[C@@H]12 is at least 0.6.
f

Exam item: decide whether the reported cell count for CN(C)[C@@H]1C(O)=C(C(N)=O)C(=O)[C@@]2(O)C(O)=C3C(=O)c4c(O)ccc(Cl)c4[C@@](C)(O)[C@H]3C[C@@H]12 is at least 0.6.
t

Exam item: decide whether the reported cell count for CCN(CC)CCCC(C)Nc1c2ccc(Cl)cc2nc2ccc(OC)cc12 (stereo unspecified) is at least 0.6.
t

Exam item: decide whether the reported cell count for CC(C=CC(=O)NO)=C[C@@H](C)C(=O)c1ccc(N(C)C)cc1 is at least 0.6.
f

Exam item: decide whether the reported cell count for N#CC(C#N)=NNc1ccc(OC(F)(F)F)cc1 is at least 0.6.
t

Exam item: decide whether the reported cell count for Nc1ccn([C@@H]2O[C@H](CO)[C@@H](O)C2(F)F)c(=O)n1 is at least 0.6.
f

Exam item: decide whether the reported cell count for COc1ccc(C[C@H]2NC[C@H](O)[C@H]2OC(C)=O)cc1 is at least 0.6.
f

Exam item: decide whether the reported cell count for Nc1c2ccccc2nc2ccccc12 is at least 0.6.
f

Exam item: decide whether the reported cell count for O=C(O)CCCCC(CCSCc1ccccc1)SCc1ccccc1 (stereo unspecified) is at least 0.6.
t

Exam item: decide whether the reported cell count for C[C@H]1CCC/C=C/[C@@H]2C[C@H](O)C[C@H]2[C@H](O)/C=C/C(=O)O1 is at least 0.6.
t

Exam item: decide whether the reported cell count for O=C(/C=C/c1cccc(S(=O)(=O)Nc2ccccc2)c1)NO is at least 0.6.
f

Exam item: decide whether the reported cell count for O=C(/C=C\n1cnc(-c2cc(C(F)(F)F)cc(C(F)(F)F)c2)n1)NNc1cnccn1 [selinexor] is at least 0.6.
t

Exam item: decide whether the reported cell count for CCCC[C@@H](C=O)NC(=O)[C@H](CC(C)C)NC(=O)[C@H](CC(C)C)NC(C)=O is at least 0.6.
f

Exam item: decide whether the reported cell count for CNCCCN1c2ccccc2CCc2ccccc21 is at least 0.6.
f
